B1: Twister Ribozyme (parent)
chain: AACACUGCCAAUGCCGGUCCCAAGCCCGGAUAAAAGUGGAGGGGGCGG

variants of: B1; experiment: self-cleavage, relative activity (ratio to wild type); higher = more cleavage; co-transcriptional
Use self-cleavage to assign classes; range list: low band: < 0.1; middle band: ≥ 0.1 and < 0.4; high band: ≥ 0.4

Observe how each entry below is paired with its result.
>>> answer_label("AACACAGCCAAUGCCGGUCCCAAGCCCGGAUAAAAGUGGACGGGGCGG [U6A G41C]")
"middle band"
>>> answer_label("AACACUGCCAAUGCCGGUCCCACGCUCGGAUAAAAGUGGAGGGGGCGG [A23C C26U]")
"low band"
>>> answer_label("AACACUGCCAAUGCCGGUCCCAAGUCCGGAUAAAAGUGGAGAGGGCGG [C25U G42A]")
"middle band"

Any idea which band CACACUGCCAAUGCCGGUCCCAAGCCCGGAUAAAAGUGGAGGGGGCUG [A1C G47U] is in?
middle band

// return the class label for AACACUGCCAAUGCUGGUCCCAAGCCCGGAUAAAAGUGGAGGGGGGGG [C15U C46G]
high band

// bin(item) where item = AACACUGCCAAUCCCGGUCCCAAGCCCGGAUAAAAGUGGAGGGGGAGG [G13C C46A]
middle band

Which bin should I file AACUCUGCCAAUGCCGGUCCCAAGCCCGCAUAAAAGUGGAGGGGGCGG [A4U G29C] under?
low band

For AACACUGCCAAUGCCGGUCCCAAACCCGGAUAAAAGUGGAGGGGGCGU [G24A G48U] , which self-cleavage bin applies?
low band

Sort UAUACUGCCAAUGCCGGUCCCAAGCCCGGAUAAAAGUGGAGGGGGCGG [A1U C3U] into one of the categories.
low band

For the record AACACUGCCAAUGCCGGUCCCAAGCCCGGAUAAAAGUGGUGGUGGCGG [A40U G43U] , report the class its self-cleavage corresponds to.
low band

State the class of the variant shown: AACACUGCCAAUGCCGGUCCCAGGCCUGGAUAAAAGUGGAGGGGGCGG [A23G C27U]
middle band

Textbook exercise: identify the category of the variant given here, AACACUGCUAAUGCCGGUCCCAAGCCCGGCUAAAAGUGGAGGGGGCGG [C9U A30C] , according to its measured value.
high band

Numbers sourced from the RNAGym collection of RNA variant scans (doi:10.7554/elife.80360).
